Hello, the source for this data is paper PMC4072508, in case you need it.

target or system: T1, Mcl-1, Q07820
T1 chain: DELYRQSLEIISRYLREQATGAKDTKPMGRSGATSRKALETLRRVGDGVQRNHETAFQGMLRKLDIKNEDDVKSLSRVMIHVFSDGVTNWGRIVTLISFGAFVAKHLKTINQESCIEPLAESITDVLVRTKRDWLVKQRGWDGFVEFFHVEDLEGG
protocol details: peptide SPOT array, c-Myc-tagged receptor at 1 uM or 100 nM, anti-c-Myc-Cy3
measured metric: SPOT signal as a fraction of Bim BH3's signal on the same receptor and array

Below, 3 binders whose answers are already recorded.
[[record]]
binder = "EGEEFTVTCTIKDVSSSVYSTWKREN [KIT]"
result_value = 0.02

[[record]]
binder = "TESGSFVANLLKDLGLEIGELAVRGA [PCDHB2]"
result_value = 0.02

[[record]]
binder = "KFMKTIPGTALVEMGDEYAVERAVTH [HNRPLL]"
result_value = 0.02


[A] CHGLRELALNYHLLLDELLLALSSEK [FBXL3]
[B] AAVVLSVATFLYQVAERVRYYREFHH [ACCN3]
[C] EERAQNVTRLLRKQAEEVNTEWEKLN [DMD]
Arrange the 3 entries by SPOT signal as a fraction of Bim BH3's signal on the same receptor and array so the values rise. Would you mind listing the labels in the order asked for?
C, B, A
